Answer each item with its documented pEC50.
Molecular target: M4 muscarinic receptor (Homo sapiens, UniProt P08173)
Sequence (P08173 whole entry): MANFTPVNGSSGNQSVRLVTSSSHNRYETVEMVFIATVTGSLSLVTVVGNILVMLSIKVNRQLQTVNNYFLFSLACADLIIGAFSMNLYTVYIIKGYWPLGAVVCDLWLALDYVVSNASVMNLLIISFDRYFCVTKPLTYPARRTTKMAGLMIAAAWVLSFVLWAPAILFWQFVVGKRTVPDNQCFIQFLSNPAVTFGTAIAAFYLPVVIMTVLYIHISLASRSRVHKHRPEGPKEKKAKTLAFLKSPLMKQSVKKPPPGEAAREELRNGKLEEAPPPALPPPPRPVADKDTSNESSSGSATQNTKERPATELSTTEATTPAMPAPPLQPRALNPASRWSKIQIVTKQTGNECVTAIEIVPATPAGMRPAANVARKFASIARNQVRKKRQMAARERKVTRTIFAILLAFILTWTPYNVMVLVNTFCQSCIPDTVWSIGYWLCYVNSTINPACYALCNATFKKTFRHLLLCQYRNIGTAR
Assay: Functional mobilization of intracellular calcium (FLIPR) in CHO cells expressing M4
Settings: CHO cells expressing M4, calcium mobilization
Procedure: Functional Mobilization of Intracellular Calcium to Determine Muscarinic Receptor Activity: […] Compounds are prepared at a 2× fold concentration in a 96-well plate (round bottom, Costar Corning cat#3656), by reconstituting the pre-spotted compounds in bath 1 containing 1 mM probenecid. […] In both assay modes, the fluorescence is recorded for 60 sec (excitation wavelength is […] and emission wavelength 540 nm) using the FLIPR 3 instrument. […]
pEC50: −log10 of the molar value.

Solved cases below.
                                   compound  result
0  CN1C(=O)CCC2(CCN(C3CCCCCC3)CC2)c2ccccc21  > 5.70
1  NC(=O)N1CCCC2(CCN(CC3CC4C=CC3C4)CC2)c2ccccc21 (stereo not shown)  > 5.70
2  CN(C)C(=O)N1CCCC2(CCN(CC3CCCCC3)CC2)c2ccccc21  < 5.00
3  CN(C)C(=O)N1CCCC2(CCN(C3CCCCCC3)CC2)c2ccccc21  < 5.00
4  CN(C)C(=O)N1CCCC2(CCN(CCC(C)(C)C)CC2)c2ccccc21  > 5.70

Would you be so kind as to report pEC50 for each listed record?
1. CC(C)(C)CCN1CCC2(CCC(=O)Nc3ccccc32)CC1
2. CN(C)C(=O)N1CCCC2(CCN(CC3CC4C=CC3C4)CC2)c2ccccc21 (stereo not shown)
3. CC(=O)N1CCCC2(CCN(CCC(C)(C)C)CC2)c2ccccc21

// result
1. > 5.70
2. > 5.70
3. > 5.70

====

Target: M4 muscarinic receptor (Homo sapiens)
Test: Functional mobilization of intracellular calcium (FLIPR) in CHO cells expressing M4
Settings: CHO cells expressing M4, calcium mobilization
Experimental: Functional Mobilization of Intracellular Calcium to Determine Muscarinic Receptor Activity: […] Compounds are prepared at a 2× fold concentration in a 96-well plate (round bottom, Costar Corning cat#3656), by reconstituting the pre-spotted compounds in bath 1 containing 1 mM probenecid. […] In both assay modes, the fluorescence is recorded for 60 sec (excitation wavelength is […] and emission wavelength 540 nm) using the FLIPR 3 instrument. […]
Task for the reader: assign each of the following compounds its reported EC50.

Examples with their reported EC50 follow.
In [3]: df
Out[3]:
                                   compound                            measured_on      result
0  CC(=O)N1CCCC2(CCN(CC3CC4C=CC3C4)CC2)c2ccccc21 (centres unmarked) [Compound 9]  M4 muscarinic receptor (Homo sapiens)      < 2 µM
1  NC(=O)N1CCCC2(CCN(C3C[C@@H]4CC[C@@H]3C4)CC2)c2ccccc21 (some centres unmarked) [Compound 26]  M4 muscarinic receptor (Homo sapiens)     > 10 µM
2  CCOC(=O)N1CCC(N2CCC3(CCC(=O)N(C)c4ccccc43)CC2)CC1 [Compound 21]  M4 muscarinic receptor (Homo sapiens)  2 to 10 µM
3  CCOC(=O)N1C2CCC1CC(N1CCC3(CCCN(C(C)=O)c4ccccc43)CC1)C2 (centres unmarked) [Compound 28]  M4 muscarinic receptor (Homo sapiens)      < 2 µM
4  CN1C(=O)CCC2(CCN(CCC(C)(C)C)CC2)c2ccccc21 [Compound 3]  M4 muscarinic receptor (Homo sapiens)      < 2 µM

Quick request: EC50 for each listed item, please.
1. CCOC(=O)N1CCC(N2CCC3(CCC(=O)Nc4ccccc43)CC2)CC1 [Compound 18]
2. CC(=O)N1CCCC2(CCN(CCC(C)C)CC2)c2ccccc21 [Compound 34]
3. O=C1CCC2(CCN(C3CC4CCC(C4)C3)CC2)c2ccccc2N1 (centres unmarked) [Compound 29]
4. CN1C(=O)CCC2(CCN(C3CC4CCC(C4)C3)CC2)c2ccccc21 (centres unmarked) [Compound 19]
5. O=C1CCC2(CCN(C3CCCCCC3)CC2)c2ccccc2N1 [Compound 24]
6. CN1C(=O)CCC2(CCN(C3C[C@@H]4CC[C@@H]3C4)CC2)c2ccccc21 (some centres unmarked) [Compound 35]

// result
["< 2 µM", "> 10 µM", "< 2 µM", "< 2 µM", "< 2 µM", "< 2 µM"]

Values were extracted from patent US7786107B2.
